Where do the numbers come from? From paper PMC5852967.

# pKi per entry for ATP-phosphoribosyltransferase (ATP-PRT, HisG) (Escherichia coli)
pKi here is simply -log10 of the concentration when that concentration is written in mol/L.

>  <compound string>
Nc1ncnc2c1ncn2[C@@H]1O[C@H](COP(=O)(O)O)[C@@H](O)[C@H]1O

>  <pKi>
2.67

$$$$

(Q) ATP-phosphoribosyltransferase (ATP-PRT, HisG) (Escherichia coli) / pKi / NC(=O)c1ncn([C@@H]2O[C@H](COP(=O)(O)O)[C@@H](O)[C@H]2O)c1N : value?
(A) 3.19
